- System: Ipomoea hederacea (IPOHE)
- protocol text: Post-emergence Test, Ipomoea hederacea (IPOHE)
- Type: in vivo
- Design: key: 5=81-100%, 4=61-80%, 3=41-60%, 2=21-40%, 1=0-20% damage
- particulars: 1000 g/ha, evaluated after 13 days
measured endpoint: percentage damage caused to the plant, IPOHE (five-point scale)

>  <compound string>
CCn1c(Cn2cnc(Cl)c2Cl)cc(=O)c(C(=O)O)c1-c1ccc(Cl)c(Cl)c1

>  <result>
0

$$$$

For each of the items listed, what is its percentage damage caused to the plant, IPOHE (five-point scale)?
1. CCn1c(Cn2ccnn2)cc(=O)c(C(=O)O)c1-c1ccc(Cl)c(Cl)c1
2. CCn1c(Cn2nc(C(=O)OC)cc2C(=O)OC)cc(=O)c(C(=O)O)c1-c1ccc(Cl)c(Cl)c1
3. CCn1c(Cn2ccc(OCC(F)F)n2)cc(=O)c(C(=O)O)c1-c1ccc(Cl)c(Cl)c1

OUT:
0
0
4 (4=61-80%)

The following molecules each have a reported value; give each one's percentage damage caused to the plant, IPOHE (five-point scale).
1. CCOC(=O)c1c(-c2ccc(Cl)c(Cl)c2)n(CC)c(Cn2ccc(C(F)(F)F)n2)c(Br)c1=O
2. CCOc1ccn(Cc2cc(=O)c(C(=O)O)c(-c3ccc(Cl)c(Cl)c3)n2CC)n1
3. CCOC(=O)c1c(-c2ccc(Cl)c(Cl)c2)n(CC)c(Cn2nccn2)cc1=O
4. CCn1c(Cn2nccn2)cc(=O)c(C(=O)O)c1-c1ccc(Cl)c(Cl)c1
5. CCn1c(Cn2cnc(C(F)(F)F)n2)cc(=O)c(C(=O)O)c1-c1ccc(Cl)c(Cl)c1

OUT:
["2 (2=21-40%)", "4 (4=61-80%)", 0, "2 (2=21-40%)", "1 (1=0-20%)"]

For each entry beneath this line, provide reported percentage damage caused to the plant, IPOHE (five-point scale).
1. CCn1c(Cn2ccc(C(F)(F)F)n2)c(Br)c(=O)c(C(=O)O)c1-c1ccc(Cl)c(Cl)c1
2. CCn1c(Cn2ccc(C(F)(F)F)n2)cc(=O)c(C(=O)O)c1-c1cccc(Cl)c1
3. CCn1c(Cn2ccc([N+](=O)[O-])n2)cc(=O)c(C(=O)O)c1-c1ccc(Cl)c(Cl)c1

OUT:
1. 1 (1=0-20%)
2. 4 (4=61-80%)
3. 0

Quick batch: percentage damage caused to the plant, IPOHE (five-point scale) for everything below.
1. CCn1c(Cn2ccc(OCCOC)n2)cc(=O)c(C(=O)O)c1-c1ccc(Cl)c(Cl)c1
2. CCn1c(Cn2nc(C)cc2Cl)cc(=O)c(C(=O)O)c1-c1ccc(Cl)c(Cl)c1
3. CCOC(=O)c1c(-c2ccc(Cl)c(Cl)c2)n(CC)c(Cn2ccc(Cl)n2)cc1=O
4. CCn1c(Cn2nc(C)cc2C)cc(=O)c(C(=O)O)c1-c1ccc(Cl)c(Cl)c1

OUT:
3 (3=41-60%)
5 (5=81-100%)
2 (2=21-40%)
2 (2=21-40%)

====

- Tested on: Setaria faberi (SETFA)
- protocol text: Pre-emergence Test, Setaria faberi (SETFA)
- Assay type: in vivo
- particulars: 1000 g/ha, evaluated after 13 days
Kindly supply the reported Pre-emergence Test SETFA, percentage damage caused to the plant (five-point scale) values for the records listed here.

>  <molecule>
CCn1c(Cn2nc(C(F)(F)F)cc2OCCOC)cc(=O)c(C(=O)O)c1-c1ccc(Cl)c(Cl)c1

>  <result>
5 (5=81-100%)

$$$$

Give Pre-emergence Test SETFA, percentage damage caused to the plant (five-point scale) for each listed item.
1. CCOC(=O)c1c(-c2ccc(Cl)c(Cl)c2)n(CC)c(Cn2cnc(C(F)(F)F)n2)cc1=O
2. CCOC(=O)c1c(-c2cccc(Cl)c2)n(CC)c(Cn2ccc(C(F)(F)F)n2)cc1=O
3. CCn1c(Cn2nc(C(=O)OC)cc2C(=O)OC)cc(=O)c(C(=O)O)c1-c1ccc(Cl)c(Cl)c1
4. CCOC(=O)c1c(-c2ccc(Cl)c(Cl)c2)n(CC)c(Cn2ccc(Cl)n2)c(Br)c1=O
5. CCn1c(Cn2nccc2Cl)cc(=O)c(C(=O)O)c1-c1ccc(Cl)c(Cl)c1
6. CCn1c(Cn2cc(C)c(C(F)(F)F)n2)cc(=O)c(C(=O)O)c1-c1ccc(Cl)c(Cl)c1
7. CCn1c(Cn2nc(C(F)(F)F)cc2C(F)(F)F)cc(=O)c(C(=O)O)c1-c1ccc(Cl)c(Cl)c1
8. CCn1c(Cn2nc(C(F)(F)F)cc2O)cc(=O)c(C(=O)O)c1-c1ccc(Cl)c(Cl)c1

OUT:
1. 0
2. 3 (3=41-60%)
3. 1 (1=0-20%)
4. 0
5. 5 (5=81-100%)
6. 3 (3=41-60%)
7. 0
8. 1 (1=0-20%)

Below are 3 molecules. Give each one its Pre-emergence Test SETFA, percentage damage caused to the plant (five-point scale).
1. COCCn1c(Cn2ccc(Cl)n2)cc(=O)c(C(=O)O)c1-c1ccc(Cl)c(Cl)c1
2. CCn1c(Cn2cnc(Cl)n2)cc(=O)c(C(=O)O)c1-c1ccc(Cl)c(Cl)c1
3. CCn1c(Cn2ccc(C(F)(F)F)n2)cc(=O)c(C(=O)O)c1-c1ccc(Cl)c(Cl)c1

OUT:
1: 4 (4=61-80%); 2: 3 (3=41-60%); 3: 5 (5=81-100%)

Consider the following items and state reported Pre-emergence Test SETFA, percentage damage caused to the plant (five-point scale) for each.
1. CCn1c(Cn2ccc(C(F)(F)F)n2)cc(=O)c(C(=O)O)c1-c1ccc(F)c(F)c1
2. CCn1c(Cn2nc(C(F)(F)F)cc2C)cc(=O)c(C(=O)O)c1-c1ccc(Cl)c(Cl)c1 [Compound 13a]
3. CCn1c(Cn2ccc(Cl)n2)cc(=O)c(C(=O)O)c1-c1ccc(Cl)c(Cl)c1

OUT:
1. 5 (5=81-100%)
2. 4 (4=61-80%)
3. 5 (5=81-100%)

====

Please respond with reported Pre-emergence Test SETFA, percentage damage caused to the plant (five-point scale) for every item in the list.
- Test system: Setaria faberi (SETFA)
- protocol text: Pre-emergence Test, Setaria faberi (SETFA)
- Format: in vivo
- particulars: 1000 g/ha, evaluated after 13 days

Reference set, count: 3
>  <compound string>
CCn1c(Cn2ccc(C(F)(F)F)n2)c(Br)c(=O)c(C(=O)O)c1-c1ccc(Cl)c(Cl)c1

>  <result>
2 (2=21-40%)

$$$$
>  <compound string>
CCn1c(Cn2nc(C)cc2O)cc(=O)c(C(=O)O)c1-c1ccc(Cl)c(Cl)c1

>  <result>
1 (1=0-20%)

$$$$
>  <compound string>
CCn1c(Cn2cnc([N+](=O)[O-])c2)cc(=O)c(C(=O)O)c1-c1ccc(Cl)c(Cl)c1

>  <result>
0

$$$$

Continue with the next compound.
IN: // lookup Pre-emergence Test SETFA, percentage damage caused to the plant (five-point scale) | system=Setaria faberi (SETFA) | key= "CCn1c(Cn2nc(C)cc2Cl)cc(=O)c(C(=O)O)c1-c1ccc(Cl)c(Cl)c1"
OUT: 4 (4=61-80%)

====

I'd be grateful if you could share measured Post-emergence Test ECHCG, percentage damage caused to the plant (five-point scale) for these entries.
- System: Echinochloa crus-galli (ECHCG)
- protocol text: Post-emergence Test, Echinochloa crus-galli (ECHCG)
- Type: in vivo
- particulars: 250 g/Ha (*), evaluated after 13 days

>  <compound string>
CCn1c(Cn2ccc(-c3nccs3)n2)cc(=O)c(C(=O)O)c1-c1ccc(Cl)c(Cl)c1

>  <result>
1 (1=0-20%)

$$$$
>  <compound string>
CCn1c(Cn2ccc(-c3cnccn3)n2)cc(=O)c(C(=O)O)c1-c1ccc(Cl)c(Cl)c1

>  <result>
1 (1=0-20%)

$$$$
>  <compound string>
CCn1c(Cn2ccc(-c3cccs3)n2)cc(=O)c(C(=O)O)c1-c1ccc(Cl)c(Cl)c1

>  <result>
2 (2=21-40%)

$$$$
>  <compound string>
CCn1c(Cn2ccc(-c3ccc(C)cc3)n2)cc(=O)c(C(=O)O)c1-c1ccc(Cl)c(Cl)c1

>  <result>
1 (1=0-20%)

$$$$
>  <compound string>
CCn1c(Cn2ccc(-c3ccncc3)n2)cc(=O)c(C(=O)O)c1-c1ccc(Cl)c(Cl)c1

>  <result>
1 (1=0-20%)

$$$$
>  <compound string>
CCn1c(Cn2ccc(/C=N/OC)n2)cc(=O)c(C(=O)O)c1-c1ccc(Cl)c(Cl)c1

>  <result>
3 (3=41-60%)

$$$$

Look up Post-emergence Test ECHCG, percentage damage caused to the plant (five-point scale) for the entries below, preserving their order.
1. CCn1c(Cn2nc(-c3ccccc3)cc2C(F)(F)F)cc(=O)c(C(=O)O)c1-c1ccc(Cl)c(Cl)c1
2. CCn1c(Cn2ccc(-c3ccco3)n2)cc(=O)c(C(=O)O)c1-c1ccc(Cl)c(Cl)c1
3. CCn1c(Cn2ccc(-c3ccc(Cl)cc3)n2)cc(=O)c(C(=O)O)c1-c1ccc(Cl)c(Cl)c1

OUT:
2 (2=21-40%)
1 (1=0-20%)
1 (1=0-20%)
